Target: Methionyl-tRNA synthetase (Staphylococcus aureus)
Assay: Inhibition of Staphylococcus aureus methionyl-tRNA synthetase (SaMetRS)
result-type: IC50 (nM)

[[record]]
compound_smiles = "NC(=O)[C@H](Cc1ccc(O)cc1)NC(=O)[C@@H]1CCCN1/C=C1\\N=C(c2ccc(Cl)cc2Cl)OC1=O"
target_of_assay = "Methionyl-tRNA synthetase (Staphylococcus aureus)"
result_type = "IC50"
unit_info = "nM"
assay_value = 680

[[record]]
compound_smiles = "CC/C(=C1/N=C(c2ccc(Br)cc2)OC1=O)N1CCC[C@H]1C(=O)N[C@@H](Cc1ccc(O)cc1)C(N)=O"
target_of_assay = "Methionyl-tRNA synthetase (Staphylococcus aureus)"
result_type = "IC50"
unit_info = "nM"
assay_value = 850

[[record]]
compound_smiles = "NC(=O)[C@H](Cc1ccc(O)cc1)NC(=O)[C@@H]1CCN1/C=C1\\N=C(c2ccc(Br)cc2)OC1=O"
target_of_assay = "Methionyl-tRNA synthetase (Staphylococcus aureus)"
result_type = "IC50"
unit_info = "nM"
assay_value = 510

[[record]]
compound_smiles = "CCC/C(=C1/N=C(c2ccc(Br)cc2)OC1=O)N1CC[C@H]1C(=O)N[C@@H](Cc1ccc(O)cc1)C(N)=O"
target_of_assay = "Methionyl-tRNA synthetase (Staphylococcus aureus)"
result_type = "IC50"
unit_info = "nM"
assay_value = 87


###

Molecular target: Methionyl-tRNA synthetase (Enterococcus faecalis)
Test: Inhibition of Enterococci faecalis methionyl-tRNA synthetase (EfMetRS)
pIC50: −log10 of the molar value.
Decide using pIC50: a value greater than or equal to 5 is 1, a smaller one is -1.

[[record]]
compound_smiles = "CC/C(=C1/N=C(c2ccc(Br)cc2)OC1=O)N1CCC[C@H]1C(=O)N[C@@H](Cc1ccc(O)cc1)C(N)=O"
target_of_assay = "Methionyl-tRNA synthetase (Enterococcus faecalis)"
assigned_class = 1

[[record]]
compound_smiles = "NC(=O)[C@H](Cc1ccc(O)cc1)NC(=O)[C@@H]1CCN1/C=C1\\N=C(c2ccc(Br)cc2)OC1=O"
target_of_assay = "Methionyl-tRNA synthetase (Enterococcus faecalis)"
assigned_class = 1

[[record]]
compound_smiles = "NC(=O)[C@H](Cc1ccc(O)cc1)NC(=O)[C@@H]1CCCN1/C=C1\\N=C(c2ccc(Cl)cc2Cl)OC1=O"
target_of_assay = "Methionyl-tRNA synthetase (Enterococcus faecalis)"
assigned_class = -1

[[record]]
compound_smiles = "NC(=O)[C@H](Cc1ccc(O)cc1)NC(=O)[C@@H]1CCCN1/C=C1\\N=C(c2ccc(Br)cc2)OC1=O"
target_of_assay = "Methionyl-tRNA synthetase (Enterococcus faecalis)"
assigned_class = -1

[[record]]
compound_smiles = "CCC/C(=C1/N=C(c2ccc(Br)cc2)OC1=O)N1CCC[C@H]1C(=O)N[C@@H](Cc1ccc(O)cc1)C(N)=O"
target_of_assay = "Methionyl-tRNA synthetase (Enterococcus faecalis)"
assigned_class = 1


###

Molecular target: Methionyl-tRNA synthetase (Staphylococcus aureus)
Assay: Inhibition of Staphylococcus aureus methionyl-tRNA synthetase (SaMetRS)
Below: a set of entries, each annotated with reported IC50.
result-type: IC50

[[record]]
compound_smiles = "NC(=O)[C@H](Cc1ccc(O)cc1)NC(=O)[C@@H]1CCCN1/C=C1\\N=C(c2ccc(Br)cc2)OC1=O"
assay_value = "1100 nM"

[[record]]
compound_smiles = "CCC/C(=C1/N=C(c2ccc(Br)cc2)OC1=O)N1CCC[C@H]1C(=O)N[C@@H](Cc1ccc(O)cc1)C(N)=O"
assay_value = "760 nM"


Hello, the source for this data is BindingDB's records for doi:10.1016/j.bmcl.2004.01.094, in case you need it.
